test system: L1210 leukemia ip in BDF1 mice, survival T/C; experiment: NCI In Vivo Anticancer Drug Screen. Data for tumor model L1210 Leukemia (intraperitoneal) in B6D2F1 (BDF1) mice; details: endpoint: mean survival time; dose: 200.0 mg/kg/injection; schedule: Q04DX003 (ip); vehicle: saline; higher = longer survival
Toxic doses and inconclusive results are not listed.
Would you kindly list T/C for each of these compounds?

Prompt: Give measured T/C for CCOC(=O)CCN1CC(C)OC(C)C1 (centres undefined) (L1210 leukemia ip in BDF1 mice, survival T/C).
Response: 102 % of control

Prompt: Give measured T/C for COc1ccc(CCN=C(C)C2C3CC4CC(C3)CC2C4)cc1OC (centres undefined) (L1210 leukemia ip in BDF1 mice, survival T/C).
Response: 97 % of control

Prompt: Give measured T/C for CCN(CC)CC(=O)NCC(CC)(CCN1CCCCC1)c1cccc2ccccc12 (centres undefined) (L1210 leukemia ip in BDF1 mice, survival T/C).
Response: 97 % of control

Prompt: Give measured T/C for "C[Si](C)(CCl)c1ccccc1" (L1210 leukemia ip in BDF1 mice, survival T/C).
Response: 105 % of control

Prompt: Give measured T/C for c1ccc(N2CCN(c3ccccc3)C2C2CO2)cc1 (centres undefined) (L1210 leukemia ip in BDF1 mice, survival T/C).
Response: 97 % of control

Prompt: Give measured T/C for "Cc1cc(N)ccc1/C=C/C(=O)O" (L1210 leukemia ip in BDF1 mice, survival T/C).
Response: 98 % of control

Prompt: Give measured T/C for O=C(O)C1C2CCC(C2)C1C(=O)O (centres undefined) (L1210 leukemia ip in BDF1 mice, survival T/C).
Response: 100 % of control

Prompt: Give measured T/C for "Oc1ccc(Nc2ncnc3cc(Cl)ccc23)cc1CN(c1ccccc1)c1ccccc1" (L1210 leukemia ip in BDF1 mice, survival T/C).
Response: 89 % of control

Prompt: Give measured T/C for CC(C(=O)O)N(C)C(=O)OCc1ccccc1 (centres undefined) (L1210 leukemia ip in BDF1 mice, survival T/C).
Response: 90 % of control

Prompt: Give measured T/C for "NC(=O)c1ccc[n+](CC(=O)NCc2ccccc2)c1" (L1210 leukemia ip in BDF1 mice, survival T/C).
Response: 93 % of control

Prompt: Give measured T/C for "Nc1ccnc(Br)c1" (L1210 leukemia ip in BDF1 mice, survival T/C).
Response: 107 % of control

Prompt: Give measured T/C for "CNC(=O)c1ccccc1" (L1210 leukemia ip in BDF1 mice, survival T/C).
Response: 98 % of control

Prompt: Give measured T/C for "COC(=O)c1cc(C)[n+]([O-])cc1C(=O)OC" (L1210 leukemia ip in BDF1 mice, survival T/C).
Response: 97 % of control

Prompt: Give measured T/C for CCC(C)(C=O)C(C)=O (centres undefined) (L1210 leukemia ip in BDF1 mice, survival T/C).
Response: 96 % of control

====

Would you kindly list T/C for each of these compounds?
tested on: L1210 leukemia ip in BDF1 mice, survival T/C; experiment: NCI In Vivo Anticancer Drug Screen. Data for tumor model L1210 Leukemia (intraperitoneal) in B6D2F1 (BDF1) mice; conditions: endpoint: mean survival time; dose: 400.0 mg/kg/injection; schedule: Q04DX003 (ip); vehicle: saline with Tween-80; higher = longer survival
Toxic doses and inconclusive results are not listed.

Prompt: State its T/C: CC(N)CSC(=O)c1ccccc1 (stereo unspecified)
Response: 94 % of control

Prompt: State its T/C: "c1ccc(COc2ccc(Cc3nccc4ccccc34)cc2OCc2ccccc2)cc1"
Response: 88 % of control

Prompt: State its T/C: "Cn1nnnc1/C(=C/c1ccccc1)C(=O)O"
Response: 90 % of control

Prompt: State its T/C: CNC(Cc1ccc(OCc2ccccc2)cc1)C(=O)NC(CO)CC(C)C (stereo unspecified)
Response: 105 % of control

Prompt: State its T/C: Cc1ccc(S(=O)(=O)OCC(OS(=O)(=O)c2ccc(C)cc2)C2OCOC(COS(=O)(=O)c3ccc(C)cc3)C2OS(=O)(=O)c2ccc(C)cc2)cc1 (stereo unspecified)
Response: 100 % of control

Prompt: State its T/C: "CCOC(=O)C1=CC=CC1=O"
Response: 91 % of control

Prompt: State its T/C: "CCC/C(C)=N\O"
Response: 100 % of control

Prompt: State its T/C: "CC(=O)Nc1ccc([N+](=O)[O-])c(NC(C)=O)n1"
Response: 112 % of control

Prompt: State its T/C: COC(=O)CNC(=O)C(C)NC(=O)OCc1ccccc1 (stereo unspecified)
Response: 100 % of control

Prompt: State its T/C: "Clc1ccc(C=NCCN=Cc2ccc(Cl)c(Cl)c2)cc1Cl"
Response: 95 % of control

Prompt: State its T/C: "COc1ccccc1/C=C/C(=O)c1ccccc1"
Response: 96 % of control

Prompt: State its T/C: "Cc1cc(C)c(NC(=O)NCCCl)c(C)c1"
Response: 117 % of control

Prompt: State its T/C: "COc1cc(/C=N/N2C(=O)CSC2=S)ccc1OCc1ccccc1"
Response: 86 % of control

Prompt: State its T/C: O=[N+]([O-])CC(NNC(C[N+](=O)[O-])C(Cl)(Cl)Cl)C(Cl)(Cl)Cl (stereo unspecified)
Response: 90 % of control

Prompt: State its T/C: "C(#CCOc1ccccc1)COc1ccccc1"
Response: 97 % of control

Prompt: State its T/C: "COc1cc(-c2ccc(NC(=O)CC(C)=O)c(OC)c2)ccc1NC(=O)CC(C)=O"
Response: 89 % of control

Prompt: State its T/C: "CCCCOC(=O)c1cccnc1"
Response: 91 % of control

Prompt: State its T/C: "CC(C)c1cc(C(C)C)c(C(=O)Oc2c(Br)cc(Br)cc2Br)c(C(C)C)c1"
Response: 90 % of control

Prompt: State its T/C: "COC(=O)c1ccccc1N=NNc1ccc(C(F)(F)F)c([N+](=O)[O-])c1"
Response: 88 % of control

Prompt: State its T/C: "CCCCN=Cc1ccccc1"
Response: 103 % of control

Prompt: State its T/C: "COC(=O)CSC(=S)N(C)C"
Response: 94 % of control

Prompt: State its T/C: "COc1ccc(C(=Cc2ccccc2Br)c2ccc(OC)cc2)cc1"
Response: 92 % of control

Prompt: State its T/C: "Cn1c(C(C)(C)O)cc2ccccc21"
Response: 100 % of control

Prompt: State its T/C: N=C(CNC(=O)OCc1ccccc1)N1CCCC1C(=O)O (stereo unspecified)
Response: 101 % of control

Prompt: State its T/C: "Nc1n[nH]c(N)n1.[Ni]"
Response: 98 % of control

Prompt: State its T/C: "CCOC(=O)C(=CN1CCOCC1)C(=O)OCC"
Response: 98 % of control
